Assay: protein stability index of a GFP-peptide fusion (GPS, HEK-293T) (PSI 1-6); higher = more stable;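 also: 24-mer peptide tiles fused after GFP, lentivirally expressed, FACS-sorted into six equal bins by GFP/DsRed ratio, decoded by Illumina sequencing, PSI is the read-weighted mean bin number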
Details: treatment: MLN4924 1 uM, 8 h; c terminus: a fixed tail appended
The threshold is inclusive: protein stability index of exactly 4 counts as Fulfilled; values below receive Not fulfilled.

Before answering, review these 3 worked examples.
{"columns": ["macromolecule-sequence", "group"],
 "data": [
  ["QPGTNCALAIKVNLCGHWYYSKAC [ADAMTSL2]", "Not fulfilled"],
  ["LFDNPKLDKELRAMLREKFPEFCS [INTS3]", "Not fulfilled"],
  ["EHTGEVRTARALLDRDALKQSLVV [PCDHGA10]", "Not fulfilled"]
]}

Qu. Has RPNRQLGSMVEIAKQLQAVKRKIR [TRIM39] a recorded protein stability index greater than or equal to 4?
Ans. Not fulfilled

Qu. Tell me whether protein stability index is at least 4 here: PRLHIVKADENNGFGSKNTAFCTH [TBX5]
Ans. Not fulfilled

Qu. Hi team, for KDPKAGDSKSGGSGSESDHTTRSS [DVL3] , is the recorded protein stability index at or above 4?
Ans. Fulfilled

Qu. Reported protein stability index at or above 4? KHFCPRTPVILVGCQLDLRYADLE [RHOBTB1]
Ans. Not fulfilled

Qu. Decide: protein stability index of GLCKQDGQLRVFGAGLLSSISELK [TPH1] >= 4?
Ans. Not fulfilled

Qu. Is protein stability index at least 4? Consider FLRSIDQFANLVLHQTVERIHVGK [LSM1]
Ans. Not fulfilled

Qu. hey, is protein stability index for this one >= 4? TMIRKLEGHHHDVVACDFSPDGAL [WSB1]
Ans. Not fulfilled

Qu. Check if protein stability index >= 4 (inclusive). Item: WSVTGKAEPAMPGRLYVHPDSPAT [TBX5]
Ans. Not fulfilled

Qu. Assess whether reported protein stability index for MSWAKLARQATNLKVNFFFERIMK [FBXO39] sits at 4 or higher.
Ans. Not fulfilled

Qu. Could you please find out whether WMPPPSRADSFKVSYQLADGGEPQ [TNXB] has protein stability index that meets 4 or exceeds it?
Ans. Fulfilled

Qu. Exam item: decide whether the reported protein stability index for AMGDHSKKKPGTAMCVGCGSQIHD [ISL2] is at least 4.
Ans. Fulfilled

====

Assay: protein stability index of a GFP-peptide fusion (GPS, HEK-293T) (PSI 1-6); higher = more stable
Settings: treatment: MLN4924 1 uM, 8 h; c terminus: a fixed tail appended
Decision: protein stability index compared against 4; not below it gives 1.0, below it gives 0.0.

Example cases with answers are listed next.
{"columns": ["macromolecule-sequence", "group"],
 "data": [
  ["PCELPCKEYDVARNTGAYTSSGLA [TEKT4]", 1.0],
  ["LSRKLMQLQHEKAELEQHLEQEQE [CCDC6]", 1.0],
  ["PFTRRYYKEKFGITDLPRIDVSKR [EFHC1]", 0.0],
  ["ELLKEAELIRNIQELLKRTIMQAV [TEKT4]", 0.0],
  ["SLEQANRSLQLRIQELELQAQIHG [TFE3]", 0.0],
  ["DGVEVDDSYCDALTRPEPVHEFCA [ADAMTSL2]", 1.0]
]}

Now look at this one.
Qu. Could you please find out whether YFTKSGFHPDPRQKALYRRLATVH [CLPTM1] has protein stability index that meets 4 or exceeds it?
Ans. 0.0

====

Experiment: protein stability index of a GFP-peptide fusion (GPS, HEK-293T) (PSI 1-6); higher = more stable
Conditions: treatment: DMSO; c terminus: a fixed tail appended
As shown below, each of these sequences has a reported protein stability index value.
API note: the answer field is a bare number with no unit suffix.

Would you please look over these solved cases?
{"columns": ["macromolecule-sequence", "measured-number"],
 "data": [
  ["VTTRQVRTIVEEVQDGKVISSREQ [KRT17]", 4.87],
  ["MMDLRNTPAKSLDKFIEDYLLPDT [OAS1]", 3.04],
  ["AELVLLTLGQAWQGYVSDIRRFLS [DFFB]", 2.12],
  ["GEGRSRGSANDYKDTLGKGSSLSA [KRT71]", 4.65],
  ["DYLYTKQLSPNLDLDPLELIALAN [RHOBTB1]", 2.31],
  ["EKVEVQLPELFHKIGVGAMTWSPL [KCNAB2]", 2.45],
  ["ATTYKHGVLTRKTHADMDGKRTPR [PSD2]", 4.44],
  ["VQKEHEEYMKNLLKVGGILVMPLE [PCMTD2]", 2.69]
]}

Qu. Quick one: give measured protein stability index for CAECSQYLDETCTCFVRDGKTYCK [ISL2]
Ans. 4.98

Qu. Return protein stability index for the following sequence: GLFVPSLLCGAAFGRLVANVLKSY [CLCN6]
Ans. 2.2

Qu. Indicate the recorded protein stability index value for this sequence: TELVLSDCMLSEEGATLLLRGLCA [LRRC45]
Ans. 2.32

====

Assay: protein stability index of a GFP-peptide fusion (GPS, HEK-293T) (PSI 1-6); higher = more stable
Conditions: treatment: DMSO; c terminus: a fixed tail appended
Below, each entry is listed alongside its reported protein stability index.

// known answers, use as guide
{"columns": ["macromolecule-sequence", "protein stability index"],
 "data": [
  ["THTQIDQQPPRLLIVHIALPSWAD [M1AP]", 2.75],
  ["ELSNFKSQKVLGLNEDPLKWWSDR [ZBED1]", 2.73],
  ["PGPREALSQLRVLCCEWLRPEKHT [ZNF232]", 2.36]
]}

Qu. Kindly indicate its recorded protein stability index. Item: QVGRGLRYIHSMSLVHMDIKPSNI [WEE1]
Ans. 2.15

Qu. Retrieve protein stability index measured for EDIDTSMYDNELWAPASEGLKPGP [SERTAD1] and print it.
Ans. 4.84

====

Test: protein stability index of a GFP-peptide fusion (GPS, HEK-293T) (PSI 1-6); higher = more stable
Conditions: treatment: DMSO; c terminus: a fixed tail appended
result-type: protein stability index
Please reply with the value in numeric form only.

For orientation, consider the following solved cases.
{"columns": ["macromolecule-sequence", "measured-number"],
 "data": [
  ["KAVFGKHGPISEVLLIKDRTSKSR [RBMY1A1]", 3.04],
  ["ICAAAGRMGATMAAINSIYSNTDA [GLT8D2]", 2.26]
]}

Qu. # return recorded protein stability index for entry VQKNILAAASPYIRTKLNYNPPKD [GAN]
Ans. 2.97

Qu. Please supply the value of reported protein stability index for the item SGESGLRRRGSDPASGEVEASQLR [TMEM40]
Ans. 5.56

Qu. Consider the sequence RKNPYPTKGEKIMLAIITKMTLTQ [IRX6] . State its measured protein stability index.
Ans. 2.61

Qu. Give the reported value of protein stability index for this record: LTVEGFQSWMWRGLTFLLPFLFFG [TMEM120A]
Ans. 2.98

====

Experiment: protein stability index of a GFP-peptide fusion (GPS, HEK-293T) (PSI 1-6); higher = more stable
Details: treatment: DMSO; c terminus: a fixed tail appended
Class YES: protein stability index at least 3. Class NO: protein stability index below 3.

Before answering, review these 2 worked examples.
{"columns": ["macromolecule-sequence", "group"],
 "data": [
  ["LLYDRGTKFGLFTPGSRIESILMS [CPOX]", "NO"],
  ["KGKQPTSAENSVAKKEDKVPVKKQ [NANOGP8]", "YES"]
]}

Qu. Decide: protein stability index of SGSRHPPWARGCGMFTFLSSVTAA [SLC2A12] >= 3?
Ans. NO

Qu. Given the entry EKAMAEWVKQQAEREAEKEQKRLE [SDE2] , answer whether its protein stability index meets or surpasses 3.
Ans. YES

Qu. Say whether PSASLGKASSRKPFGILSPNVLCS [FBXO34] shows protein stability index of 3 or more.
Ans. NO

Qu. Hello, I need to know if VPSESEPPALQNNLLSPLLTGTES [NFE2L1] has measured protein stability index not below 3. Thanks!
Ans. YES

Qu. In plain terms: is recorded protein stability index at least 3 for LLTLRNSAQAPPDSISLHQPCNPP [DMRTC1] ?
Ans. YES

====

Assay: protein stability index of a GFP-peptide fusion (GPS, HEK-293T) (PSI 1-6); higher = more stable
Details: treatment: DMSO; c terminus: a fixed tail appended
Given measured protein stability index, output true (1) if it is greater than or equal to 4 and false (0) if not.

Before answering, review these 6 worked examples.
{"columns": ["macromolecule-sequence", "group"],
 "data": [
  ["PGQEAQRVVCGIDSSMILTVPGQA [NEK8]", "false (0)"],
  ["EFVNGWYILLVTSDVLTISGTIMK [MCOLN1]", "false (0)"],
  ["GLLLRGAVDGILHMFTPKLDKMLD [SLC6A17]", "false (0)"],
  ["SMWTRPQIKDFKEKIQQDADSVIT [ACBD3]", "false (0)"],
  ["RSLENYHFVDEHGKDQGINIRQKV [CLINT1]", "false (0)"],
  ["QPKEKIQAIIESCSRQFPEFQERA [NOL4L]", "false (0)"]
]}

Qu. Does protein stability index meet or surpass 4 for ETAPTTVDRTHALMKKIGQCPMRV [CRYL1] ?
Ans. false (0)

Qu. Check the entry SYKDLDVIFGVELPGNEEFQVVKD [TENT5D] : does protein stability index equal or exceed 4?
Ans. false (0)

Qu. Is it the case that DYLTVKVWDLNMEARPIETYQVHD [PPP2R2C] has protein stability index reaching or exceeding 4?
Ans. false (0)

Qu. // inclusive: protein stability index at least 4? input: VNPWKREVKLLLSSETPIEGKNMS [APMAP]
Ans. false (0)

Qu. Record FGGGCDLTPTYLNQEDAIHFHRTL [CPOX] ; criterion: protein stability index no lower than 4. Met?
Ans. false (0)

Qu. Is protein stability index at least 4? Consider KLQGLENWGQDPGVSANASKAWHQ [PBXIP1]
Ans. false (0)

Qu. Check this sequence for protein stability index at or above 4: ATADFADVADDFENYHKLRRSSSK [NETO1]
Ans. true (1)

Qu. Entry TQSDLYKKTQETLSQAGQKTSAAL [TPD52L2] : is its protein stability index no less than 4?
Ans. true (1)

Qu. Does PATGRSGPLPPPPPGAGGPPMPPP [WAS] have a reported protein stability index of at least 4?
Ans. true (1)

Qu. Determine whether measured protein stability index meets or exceeds 4 for NVIETCKEAGVQKLILTSSASVIF [NSDHL]
Ans. false (0)

Qu. Could you verify whether the entry KEGARNIRTSERVTLIVDNTRFVV [BTBD10] shows protein stability index of no less than 4?
Ans. false (0)
